# Target system: NIH 3T3 cells transfected with a human urokinase receptor (Homo sapiens)
# Construct: expressed in transfected cells; host or cells: NIH 3T3 (clone NIH3T3 CH1 (15.10)), mouse fibroblasts
# Sequence (Q03405 23-305 limits assumed): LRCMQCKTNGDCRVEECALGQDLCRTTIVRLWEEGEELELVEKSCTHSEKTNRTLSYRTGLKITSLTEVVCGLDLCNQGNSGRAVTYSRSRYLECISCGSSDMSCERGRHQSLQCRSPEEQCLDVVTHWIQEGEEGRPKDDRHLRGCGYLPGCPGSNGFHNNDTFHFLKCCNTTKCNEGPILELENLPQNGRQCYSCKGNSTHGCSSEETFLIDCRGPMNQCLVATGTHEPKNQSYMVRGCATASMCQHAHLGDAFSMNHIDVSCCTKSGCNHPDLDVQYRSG
# Test method notes: Cellular assay: uPA binding to NIH 3T3 cells transfected with a human urokinase receptor
# Format: cell-based
Counter-ions that a name gives are not always drawn.
Experimental endpoint: pIC50
// pIC50 here means minus log10 of the molar concentration (mol/L)

Quick one: pIC50 for CCC1=C(C)c2cc3[nH]c(cc4nc(cc5[nH]c(cc1n2)c(C)c5CCC(=O)O)C(CCC(=O)O)=C4C)c(C)c3CC [Mesoporphyrin IX Dihydrochloride] ?
5.56

Just for reference, patent EP0792647A1 is where these values come from.
